# TARGET_OF_ASSAY: BRD3BD2 (Homo sapiens, UniProt Q15059)
# Construct: to the isolated BD1 and BD2 domains of BRD2, BRD3 and BRD4
# Sequence (Q15059 306-415 limits assumed): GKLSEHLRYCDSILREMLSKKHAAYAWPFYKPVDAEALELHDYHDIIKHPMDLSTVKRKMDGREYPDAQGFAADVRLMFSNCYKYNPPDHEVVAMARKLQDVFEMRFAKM
# ASSAY_TEXT: competitive FP assay, BRD3 BD2 -/+ FKBP12
# Format: binding
# RUN_CONDITIONS: 15 µM FKBP12; read-out: Binding to BRD3BD2 + FKBP12 Kd
MEASURE: pKd
Answers are plain numbers, as −log10 of the molar value.

Past entries and their recorded results:
Cc1sc2c(c1C)C(c1ccc(Cl)cc1)=NC(CC(=O)NCCOCCn1cc(COCC3CN(Cc4ccccn4)C(=O)C4CCCC3N4S(=O)(=O)c3cc(Cl)cc(Cl)c3)nn1)c1nnc(C)n1-2 (stereo not shown) ... 6.85
Cc1sc2c(c1C)C(c1ccc(C#CCNC(=O)COCCn3cc(C4CN(Cc5ccccn5)C(=O)C5CCCC4N5S(=O)(=O)c4cc(Cl)cc(Cl)c4)nn3)cc1)=NC(CC(=O)OC(C)(C)C)c1nnc(C)n1-2 (stereo not shown) ... 7.59
Cc1sc2c(c1C)C(c1ccc(Cl)cc1)=NC(CC(=O)N1CCC3(CC1)CC(n1cc(C4CN(Cc5ccccn5)C(=O)C5CCCC4N5S(=O)(=O)c4cc(Cl)cc(Cl)c4)nn1)C3)c1nnc(C)n1-2 (stereo not shown) [a13c] ... 5.52

Next compound, pKd to be filled in.
Measured pKd, Cc1sc2c(c1C)C(c1ccc(Cl)cc1)=NC(CC(=O)NCCOCCn1cc(COCC3CN(C(C)c4ccccn4)C(=O)C4CCCC3N4S(=O)(=O)c3cc(Cl)cc(Cl)c3)nn1)c1nnc(C)n1-2 (stereo not shown) : 6.82

Provenance of the data: paper PMC13586308
